Test: Determination of rapamycin in murine whole blood (HPLC, ion-trap MS)
Format: in vivo
Settings: C3H/HeJ, mouse, whole blood, other: intranasal followed by intraperitoneal, at 97 h after multiple dosing (i.n. 0.7 mg/kg at 2 and 5 h, i.p. 1.6 mg/kg at 30, 48, 72 and 96 h)
quantity: concentration at 97 h
Number first, unit second: that is the form wanted.

Q. Name the reported concentration at 97 h value associated with the compound `CO[C@H]1C[C@@H]2CC[C@@H](C)[C@@](O)(O2)C(=O)C(=O)N2CCCC[C@H]2C(=O)O[C@H]([C@H](C)C[C@@H]2CC[C@@H](O)[C@H](OC)C2)CC(=O)[C@H](C)/C=C(\C)[C@@H](O)[C@@H](OC)C(=O)[C@H](C)C[C@H](C)/C=C/C=C/C=C/1C`
A. 0.622 µg/mL
